Target: p110γ (Homo sapiens (Human), UniProt P48736)
Sequence (P48736 whole entry): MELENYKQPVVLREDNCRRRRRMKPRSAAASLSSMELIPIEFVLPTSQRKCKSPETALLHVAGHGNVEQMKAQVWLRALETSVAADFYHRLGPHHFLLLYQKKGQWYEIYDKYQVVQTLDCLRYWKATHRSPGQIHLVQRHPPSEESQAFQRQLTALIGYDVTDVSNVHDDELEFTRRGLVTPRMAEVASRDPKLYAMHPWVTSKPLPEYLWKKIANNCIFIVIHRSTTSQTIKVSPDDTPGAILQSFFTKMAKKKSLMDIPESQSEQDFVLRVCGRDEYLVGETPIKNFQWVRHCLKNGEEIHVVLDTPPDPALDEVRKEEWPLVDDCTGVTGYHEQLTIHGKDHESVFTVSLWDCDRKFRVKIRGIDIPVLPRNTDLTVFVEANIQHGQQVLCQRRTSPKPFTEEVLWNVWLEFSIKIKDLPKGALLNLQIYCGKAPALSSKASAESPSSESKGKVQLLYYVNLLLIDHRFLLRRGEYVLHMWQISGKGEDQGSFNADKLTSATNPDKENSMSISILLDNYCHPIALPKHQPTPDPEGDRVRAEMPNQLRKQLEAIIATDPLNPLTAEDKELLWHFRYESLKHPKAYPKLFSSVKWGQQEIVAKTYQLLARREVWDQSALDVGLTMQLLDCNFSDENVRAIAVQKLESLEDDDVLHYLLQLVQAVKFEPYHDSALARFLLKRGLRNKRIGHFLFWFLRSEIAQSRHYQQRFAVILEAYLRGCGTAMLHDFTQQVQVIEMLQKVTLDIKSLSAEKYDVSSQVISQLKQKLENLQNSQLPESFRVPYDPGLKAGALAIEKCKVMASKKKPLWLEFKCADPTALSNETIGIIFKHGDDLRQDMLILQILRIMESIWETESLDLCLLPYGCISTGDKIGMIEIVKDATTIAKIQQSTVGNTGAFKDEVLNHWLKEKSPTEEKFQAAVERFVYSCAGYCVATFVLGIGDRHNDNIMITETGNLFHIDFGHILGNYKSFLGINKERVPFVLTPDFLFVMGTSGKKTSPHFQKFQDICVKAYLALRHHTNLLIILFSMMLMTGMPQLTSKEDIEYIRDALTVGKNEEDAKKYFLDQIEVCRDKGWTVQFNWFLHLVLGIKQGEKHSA
Assay: PI 3-Kinase (human) HTRF assay, p110γ
Type: biochemical
Conditions: read-out: PI3K γ IC50
Each entry below lists one item and its recorded IC50 value.

- compound: "CC(C)(C)N1CCN(C(=O)c2cnc3ccc(-c4ccc5oc(N)nc5c4)cn23)CC1"
  IC50: "< 10000 nM"
- compound: "Nc1nc2cc(-c3ccc4ncc(C(=O)N5CCCC5)n4c3)ccc2o1"
  IC50: "< 100 nM"
- compound: "CC(C)N1CCC(n2cnc3ccc(-c4ccc5oc(N)nc5c4)cc3c2=O)CC1"
  IC50: "< 10000 nM"
- compound: "CN1CCN(C(=O)c2cnc3ccc(-c4ccc5oc(N)nc5c4)cn23)CC1"
  IC50: "< 10000 nM"

query: Would you kindly share the measured IC50 for `CN1CCC(Oc2ncnc3ccc(-c4ccc5oc(N)nc5c4)cc23)CC1` ?
result: < 100 nM

query: Would you kindly share the measured IC50 for `CC(=O)N1CCN(C(=O)c2cnc3ccc(-c4ccc5oc(N)nc5c4)cn23)CC1` ?
result: < 1000 nM

query: Would you kindly share the measured IC50 for `Nc1nc2ccc(-c3ccc4ncc(C(=O)N5CCOCC5)n4c3)cc2s1` ?
result: < 1000 nM

query: Would you kindly share the measured IC50 for `CS(=O)(=O)N1CCC(Nc2ncnc3ccc(-c4ccc5oc(N)nc5c4)cc23)CC1` ?
result: < 100 nM

query: Would you kindly share the measured IC50 for `CC(C)N1CCN(c2cnc3ccc(-c4ccc5oc(N)nc5c4)cc3n2)CC1` ?
result: < 100 nM

src = patent US11547697B2
